- systemUnderTest: Glucocorticoid receptor (Homo sapiens)
- Sequence (P04150 whole entry): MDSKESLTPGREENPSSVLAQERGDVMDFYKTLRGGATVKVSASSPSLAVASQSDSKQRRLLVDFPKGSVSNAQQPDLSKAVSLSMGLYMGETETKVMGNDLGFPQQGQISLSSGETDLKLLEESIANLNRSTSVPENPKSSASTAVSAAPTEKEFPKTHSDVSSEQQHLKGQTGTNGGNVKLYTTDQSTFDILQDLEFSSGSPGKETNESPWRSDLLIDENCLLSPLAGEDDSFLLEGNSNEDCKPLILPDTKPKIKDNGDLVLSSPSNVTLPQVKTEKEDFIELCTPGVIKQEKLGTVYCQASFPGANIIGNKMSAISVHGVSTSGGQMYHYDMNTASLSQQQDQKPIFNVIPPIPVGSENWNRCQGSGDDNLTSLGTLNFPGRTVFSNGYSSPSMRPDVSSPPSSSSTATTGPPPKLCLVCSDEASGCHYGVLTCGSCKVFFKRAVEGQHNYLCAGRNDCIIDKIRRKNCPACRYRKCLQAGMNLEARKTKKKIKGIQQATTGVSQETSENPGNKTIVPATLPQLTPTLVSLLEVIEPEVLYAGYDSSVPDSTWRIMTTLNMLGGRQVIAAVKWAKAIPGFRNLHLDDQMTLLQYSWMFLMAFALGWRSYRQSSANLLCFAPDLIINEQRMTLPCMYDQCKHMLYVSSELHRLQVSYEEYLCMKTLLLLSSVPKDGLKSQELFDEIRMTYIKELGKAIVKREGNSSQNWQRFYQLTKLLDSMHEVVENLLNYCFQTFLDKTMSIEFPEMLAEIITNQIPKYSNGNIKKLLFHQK
- procedureText: Effective concentration in HepG2 cells transfected with LUC gene (E-sel-Luc).
- Assay type: functional, cell-based
For each entry below, report its pEC50 value.
Answers are plain numbers, as −log10 of the molar value.

Here is how some compounds turned out for pEC50.
{"compound": "CCCC1Oc2cccc(OC)c2-c2ccc3c(c21)C(C)=CC(C)(C)N3 (configuration not stated)", "pEC50": 7.15}
{"compound": "COc1cccc2c1-c1ccc3c(c1C(C(C)C)O2)C(C)=CC(C)(C)N3 (configuration not stated)", "pEC50": 7.41}
{"compound": "COc1cccc2c1-c1ccc3c(c1C(c1cccc(OCSC)c1)O2)C(C)=CC(C)(C)N3 (configuration not stated)", "pEC50": 8.40}

get_value(item= C=CCC1Oc2cccc(OC)c2-c2ccc3c(c21)C(C)=CC(C)(C)N3 (racemic) [AL-43] , readout=pEC50) returns 7.89

---

- systemUnderTest: UniProtKB P04150
- procedureText: The effective concentration in CV-1 cells for glucocorticoid response element activation (GRE).
- Assay type: functional, cell-based
assayMetric: pEC50
Numbers only, as −log10 of the molar value.

Below, 6 compounds whose answers are already recorded.
{"compound": "C#CCC1Oc2cccc(OC)c2-c2ccc3c(c21)C(C)=CC(C)(C)N3 (configuration not stated)", "observedMeasurement": 7.47}
{"compound": "C=CCC1Oc2cccc(OC)c2-c2ccc3c(c21)C(C)=CC(C)(C)N3 (stereo in doubt; 37) [AL-43]", "observedMeasurement": 6.28}
{"compound": "C/C=C\\C1Oc2cccc(OC)c2-c2ccc3c(c21)C(C)=CC(C)(C)N3 (configuration not stated)", "observedMeasurement": 6.34}
{"compound": "C=CCC1Oc2cccc(OC)c2-c2ccc3c(c21)C(C)=CC(C)(C)N3 (single isomer, unassigned; (-)) [AL-43]", "observedMeasurement": 7.85}
{"compound": "C/C=C/C1Oc2cccc(OC)c2-c2ccc3c(c21)C(C)=CC(C)(C)N3 (configuration not stated)", "observedMeasurement": 6.40}
{"compound": "COc1cccc2c1-c1ccc3c(c1C(CC(C)C)O2)C(C)=CC(C)(C)N3 (configuration not stated)", "observedMeasurement": 6.65}

For each of the compounds below, state pEC50.
1. COc1cccc2c1-c1ccc3c(c1C(c1cccc(OCSC)c1)O2)C(C)=CC(C)(C)N3 (configuration not stated)
2. C=CCCC1Oc2cccc(OC)c2-c2ccc3c(c21)C(C)=CC(C)(C)N3 (configuration not stated)

Ans:
[8.05, 7.11]

---

- systemUnderTest: Progesterone receptor (Homo sapiens, UniProt P06401)
- Sequence (P06401 whole entry): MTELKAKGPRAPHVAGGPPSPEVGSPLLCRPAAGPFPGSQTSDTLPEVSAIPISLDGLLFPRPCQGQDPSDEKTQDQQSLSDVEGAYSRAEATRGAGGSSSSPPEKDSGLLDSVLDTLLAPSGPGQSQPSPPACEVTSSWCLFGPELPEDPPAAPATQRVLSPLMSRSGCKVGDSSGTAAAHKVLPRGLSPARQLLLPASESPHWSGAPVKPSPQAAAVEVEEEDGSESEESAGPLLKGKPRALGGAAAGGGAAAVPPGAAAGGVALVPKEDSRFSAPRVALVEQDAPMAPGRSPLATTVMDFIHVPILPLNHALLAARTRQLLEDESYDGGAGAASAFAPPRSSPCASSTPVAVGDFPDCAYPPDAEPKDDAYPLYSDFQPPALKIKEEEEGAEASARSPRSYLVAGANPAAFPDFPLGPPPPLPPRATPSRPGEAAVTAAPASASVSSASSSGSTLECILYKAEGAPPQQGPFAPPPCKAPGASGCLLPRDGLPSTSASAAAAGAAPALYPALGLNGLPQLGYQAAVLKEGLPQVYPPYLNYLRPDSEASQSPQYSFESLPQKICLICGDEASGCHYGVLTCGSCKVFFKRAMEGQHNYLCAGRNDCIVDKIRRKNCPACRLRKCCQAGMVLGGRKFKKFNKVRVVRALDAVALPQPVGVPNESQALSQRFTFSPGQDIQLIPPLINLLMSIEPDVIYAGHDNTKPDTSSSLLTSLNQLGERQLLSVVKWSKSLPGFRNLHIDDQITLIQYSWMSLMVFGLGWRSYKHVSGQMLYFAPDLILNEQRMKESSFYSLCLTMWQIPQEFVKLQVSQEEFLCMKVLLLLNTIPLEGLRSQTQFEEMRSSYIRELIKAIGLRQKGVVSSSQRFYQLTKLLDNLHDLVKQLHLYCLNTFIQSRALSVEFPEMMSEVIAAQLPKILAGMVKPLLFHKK
- procedureText: Binding affinity towards progesterone receptor (PR) by displacing [3H]progesterone.
assayMetric: Ki

The examples below pair each entry with its known result.
{"molecule": "COc1cccc2c1-c1ccc3c(c1C(C(N)=O)O2)C(C)=CC(C)(C)N3 (configuration not stated)", "systemUnderTest": "Progesterone receptor (Homo sapiens, UniProt P06401)", "Ki": "> 5 µM"}
{"molecule": "COc1cccc2c1-c1ccc3c(c1C(C1CCCCC1)O2)C(C)=CC(C)(C)N3 (configuration not stated)", "systemUnderTest": "Progesterone receptor (Homo sapiens, UniProt P06401)", "Ki": "> 5 µM"}
{"molecule": "COc1cccc2c1-c1ccc3c(c1C(CC(=O)O)O2)C(C)=CC(C)(C)N3 (configuration not stated)", "systemUnderTest": "Progesterone receptor (Homo sapiens, UniProt P06401)", "Ki": "> 5 µM"}

Batch lookup, Ki per entry.
1. C=CCC1Oc2cccc(OC)c2-c2ccc3c(c21)C(C)=CC(C)(C)N3 (racemic) [AL-43]
2. CNC(=O)CC1Oc2cccc(OC)c2-c2ccc3c(c21)C(C)=CC(C)(C)N3 (configuration not stated)
3. COc1cccc2c1-c1ccc3c(c1C(Cc1ccccc1)O2)C(C)=CC(C)(C)N3 (configuration not stated)
4. COc1cccc2c1-c1ccc3c(c1CO2)C(C)=CC(C)(C)N3
5. COc1cccc2c1-c1ccc3c(c1C(CC(C)C)O2)C(C)=CC(C)(C)N3 (configuration not stated)
6. C=CCC1Oc2cccc(OC)c2-c2ccc3c(c21)C(C)=CC(C)(C)N3 (stereo in doubt; 37) [AL-43]
7. C/C=C/C1Oc2cccc(OC)c2-c2ccc3c(c21)C(C)=CC(C)(C)N3 (configuration not stated)
8. COc1cccc2c1-c1ccc3c(c1C(C1CCCC1)O2)C(C)=CC(C)(C)N3 (configuration not stated)

Ans:
1.8 µM
> 5 µM
> 5 µM
> 5 µM
> 5 µM
> 5 µM
2.1 µM
> 5 µM

The molecule C=CCC1Oc2cccc(OC)c2-c2ccc3c(c21)C(C)=CC(C)(C)N3 (single isomer, unassigned; (-)) [AL-43] , tested on Progesterone receptor (Homo sapiens, UniProt P06401), showed Ki of 1.3 µM

These measurements were taken from ChEMBL document CHEMBL1134311.
